Tested on: SK-MEL-5 melanoma
test.summary: NCI tumour cell line growth inhibition, 48 h
For each record, write down the corresponding TGI.

See these solved cases before continuing.
1) Nc1ccc(N=Nc2ccccc2)c(N)n1: > 100 µM
2) CC(=NCCN(CCN=C(C)c1c(O)cc(C)oc1=O)CCN=C(C)c1c(O)cc(C)oc1=O)c1c(O)cc(C)oc1=O: > 100 µM
3) Nc1ccc(-c2nc3cc(F)ccc3s2)cc1I: > 70.4 µM

Continue with the next compound.
query: Notebook: pull reported TGI for SK-MEL-5 melanoma, entry CC(C)[C@H]1NC(=O)[C@H]2N=C(O[C@@H]2C)[C@@H]2CCCN2C(=O)[C@H](Cc2ccccc2)NC(=O)[C@@H]2CSC(=N2)[C@@H](Cc2ccccc2)NC(=O)[C@@H]2CSC1=N2
result: > 100 µM

---

System: K-562 leukemia
test.summary: NCI tumour cell line growth inhibition, 48 h
Where a SMILES comes first, the peptide text is derived from it. The star is where a group is joined. Boc = CC(C)(C)OC(=O)*
property.label: TGI

1) COC(=O)C(Cc1c[nH]c2ccccc12)NC(=O)C(Cc1c[nH]c2ccccc12)NC(=O)C(Cc1c[nH]c2ccccc12)NC(=O)C(Cc1c[nH]c2ccccc12)NC(=O)OC(C)(C)C (stereo not drawn) (Boc-WWWW-OMe; configuration not given here): > 100 µM
2) CCN(CC)c1ccc(N=C2C=CC(=O)c3ncccc32)c(C)c1: 5.95 µM
3) CCN(CC)c1ccc(N=C2C=C(C(=O)Nc3ccc(S(C)(=O)=O)cc3)C(=O)c3ccccc32)c(C)c1: > 100 µM
4) S=c1nc2[nH]c3ccc(Br)cc3c2n[nH]1: > 100 µM
5) CNc1nc(C)c(-c2nc(Nc3cccc(S(N)(=O)=O)c3)ncc2F)s1: 24.4 µM
6) Cn1ccnc1C(c1nccn1C)C(C)(C)[N+](=O)[O-]: > 100 µM
7) COC(=O)c1nc(-c2ccc3c(n2)C(=O)C(N)=C(OC)C3=O)c(N)c(-c2ccc(OC)c(OC)c2O)c1C: 5.63 µM
8) O=S(=O)([O-])[O-].[Cl-].[NH2-].[NH2-].[NH2-].[NH2-].[Ru+3].c1ccc(-c2cccnc2)cc1: > 100 µM

Field: TGI. Fill in for each record below.
1. CCN(CC)CC(=O)/C=C/c1ccc(C)cc1
2. CCOC(=O)/C(C#N)=C/c1ccc(CO)o1
3. COc1ccccc1NC(=S)N/N=C(/C)c1ccccn1
4. COC(=O)Nc1nc2ccc(Oc3ccc(NC(=O)Nc4cccc(Br)c4)cc3)cc2[nH]1
5. CO/C(=N\N=C\c1ccc(Cl)cc1Cl)c1ccncc1

result:
["> 100 µM", "> 100 µM", "> 100 µM", "> 12 µM", "> 10 µM"]

List TGI for every entry below, keeping the order given.
1. CCCCCCCCCCCCCC[P+](CCCCCC)(CCCCCC)CCCCCC
2. O=C1OC2(C(F)(F)F)Oc3ccccc3CN2C12CCCCC2 (stereo not drawn)

result:
1. 0.0858 µM
2. 52.6 µM

State the recorded TGI for every item in the following list.
1. OCC(O)C1OC2CC1Nc1ccccc1N2 (stereo not drawn)
2. O=C1CCC2CCc3cccc4oc1c2c34 (stereo not drawn)

result:
1: > 100 µM; 2: > 100 µM

The measured values listed here are drawn from PubChem BioAssay (NCI).
